Just for reference, patent US20240299376A1 is where these values come from.

Assay: Single IV dose plasma PK
Assay type: in vivo, mouse
Settings: male, plasma; Mouse, NSG, 3M, 1 mg/kg IV in 70% PEG400; mean
Endpoint label: C0 (ng/mL)

{"Substance smiles": "O=C(Nc1ccnc(C(F)(F)F)c1)c1cnn(-c2cccc3c(=O)[nH]ccc23)c1C(F)(F)F", "Endpoint label": "C0", "Measured result": 1130}

----------
Assay: Single oral dose plasma PK in fasted dogs
Type: in vivo, dog
Conditions: male, beagle, dog, plasma, po, 5 mg/kg, 3M (N = 2 used), 5 mg/kg PO, 100% PEG400 solution, Study 1, Tlast = 48 hours

{"Compound": "O=C(Nc1ccnc(C(F)(F)F)c1)c1cnn(-c2cccc3c(=O)[nH]ccc23)c1C(F)(F)F [Compound A]", "AUC(0-t) [µg·h/mL]": 143}

----------
Experiment: Serum concentration after 28 days of oral dosing in male OCI-LY3 tumor-bearing NSG mice
Format: in vivo
Settings: mouse, 60 mg/kg QD PO 28 days, 8 h post last dose, mean

{"Substance smiles": "O=C(Nc1ccnc(C(F)(F)F)c1)c1cnn(-c2cccc3c(=O)[nH]ccc23)c1C(F)(F)F", "concentration at 8 h / ng/mL": 10600}

----------
Test: Serum concentration after 28 days of oral dosing in male OCI-LY3 tumor-bearing NSG mice
Type: in vivo
Conditions: mouse, 100 mg/kg BID PO 28 days, 12 h post last dose, mean

{"Substance smiles": "O=C(Nc1ccnc(C(F)(F)F)c1)c1cnn(-c2cccc3c(=O)[nH]ccc23)c1C(F)(F)F", "concentration at 12 h": "10300 ng/mL"}

----------
Test: Preliminary food effect assessment at steady state
Type: in vivo, human
Conditions: human, plasma, oral, 400 mg, 2 × 200 mg, fed condition, steady state; N = 1; read-out: Cmax

{"Substance smiles": "O=C(Nc1ccnc(C(F)(F)F)c1)c1cnn(-c2cccc3c(=O)[nH]ccc23)c1C(F)(F)F", "Cmax [µg/mL]": 64}

----------
Assay: Serum concentration after 28 days of oral dosing in male OCI-LY3 tumor-bearing NSG mice
Assay type: in vivo
Conditions: mouse, 1 mg/kg BID PO 28 days, 2 h post last dose, mean

{"Molecule": "O=C(Nc1ccnc(C(F)(F)F)c1)c1cnn(-c2cccc3c(=O)[nH]ccc23)c1C(F)(F)F [Compound A]", "concentration at 2 h, ng/mL": 449}

----------
Assay: Serum and tumor levels after multiple oral doses in male OCI-LY3 tumor-bearing NSG mice
Format: in vivo
Conditions: male, NSG, mouse, serum, oral, 30 mg/kg, 30 mg/kg twice daily PO, Day 4 seven doses given, 7 h post dose; mean (SD)

{"Molecule": "O=C(Nc1ccnc(C(F)(F)F)c1)c1cnn(-c2cccc3c(=O)[nH]ccc23)c1C(F)(F)F [Compound A]", "concentration at 7 h": "7420 ng/mL"}

----------
Assay: FIH study 67856633LYM1001 plasma pharmacokinetics
Assay type: in vivo, human
Details: human, plasma, oral, 100 mg, Cycle 1 Day 1, 50 mg capsule, cohort 2 × 50 mg; mean; read-out: Cmax
Endpoint label: Cmax (µg/mL)

{"Compound": "O=C(Nc1ccnc(C(F)(F)F)c1)c1cnn(-c2cccc3c(=O)[nH]ccc23)c1C(F)(F)F [Compound A]", "Measured result": 3}

----------
Assay: Serum and tumor levels after multiple oral doses in male OCI-LY3 tumor-bearing NSG mice
Format: in vivo
Conditions: male, NSG, mouse, serum, oral, 30 mg/kg, 30 mg/kg twice daily PO, Day 1 following first dose, 12 h post dose; mean (SD); read-out: Serum concentration

{"Compound": "O=C(Nc1ccnc(C(F)(F)F)c1)c1cnn(-c2cccc3c(=O)[nH]ccc23)c1C(F)(F)F [Compound A]", "concentration at 12 h (ng/mL)": 9000}

----------
Test: Single oral dose plasma PK in fasted dogs
Type: in vivo, dog
Settings: female, beagle, dog, plasma, po, 280 mg/kg, 2F, 280 mg/kg PO, 100% PEG400 solution, Study 7

{"Compound": "O=C(Nc1ccnc(C(F)(F)F)c1)c1cnn(-c2cccc3c(=O)[nH]ccc23)c1C(F)(F)F [Compound A]", "Cmax, ng/mL": 30600}

----------
Assay: FIH study 67856633LYM1001 plasma pharmacokinetics
Format: in vivo, human
Settings: human, plasma, oral, 400 mg, Cycle 1 Day 1, 200 mg capsule, cohort 2 × 200 mg; mean; read-out: Cmax
Text: The study consists of a dose escalation phase (Part 1), to determine the recommended Phase 2 dose(s) (RP2D[s]), followed by an expansion phase at the RP2D(s) (Part 2). The dose escalation phase is supported using an adaptive dose escalation strategy guided by the modified continual reassessment method (mCRM) based on a Bayesian Logistic Regression Model (BLRM) with escalation with overdose control (EWOC) principle. […]

{"Substance smiles": "O=C(Nc1ccnc(C(F)(F)F)c1)c1cnn(-c2cccc3c(=O)[nH]ccc23)c1C(F)(F)F", "Cmax [ng/mL]": 4190}

----------
Assay: 14-day oral toxicity study toxicokinetics in Sprague-Dawley rats
Assay type: in vivo
Conditions: male, rat, plasma, 30 mg/kg/day, male, Day 0, 30 mg/kg/day, range

{"Substance smiles": "O=C(Nc1ccnc(C(F)(F)F)c1)c1cnn(-c2cccc3c(=O)[nH]ccc23)c1C(F)(F)F", "Tmax": "2 to 4 h"}

----------
Test: 14-day oral toxicity study toxicokinetics in Sprague-Dawley rats
Assay type: in vivo
Details: female, rat, plasma, 30 mg/kg/day, female, Day 13, 30 mg/kg/day, range

{"Molecule": "O=C(Nc1ccnc(C(F)(F)F)c1)c1cnn(-c2cccc3c(=O)[nH]ccc23)c1C(F)(F)F [Compound A]", "Tmax": "2 to 4 h"}

----------
Test: Serum concentration after 28 days of oral dosing in male OCI-LY3 tumor-bearing NSG mice
Format: in vivo
Details: mouse, 1 mg/kg BID PO 28 days, 8 h post last dose, mean

{"Substance smiles": "O=C(Nc1ccnc(C(F)(F)F)c1)c1cnn(-c2cccc3c(=O)[nH]ccc23)c1C(F)(F)F", "concentration at 8 h": "721 ng/mL"}

----------
Assay: Preliminary food effect assessment at steady state
Type: in vivo, human
Settings: human, plasma, oral, 200 mg, 4 × 50 mg, fed condition, steady state; N = 1; read-out: Tmax

{"Substance smiles": "O=C(Nc1ccnc(C(F)(F)F)c1)c1cnn(-c2cccc3c(=O)[nH]ccc23)c1C(F)(F)F", "Readout units": "h", "Tmax": 24}

----------
Assay: FIH study 67856633LYM1001 plasma pharmacokinetics
Assay type: in vivo, human
Settings: human, plasma, oral, 200 mg, Cycle 1 Day 1, 200 mg capsule, cohort 200 mg; mean; read-out: AUCτ
Endpoint label: AUC (ng·h/mL)

{"Substance smiles": "O=C(Nc1ccnc(C(F)(F)F)c1)c1cnn(-c2cccc3c(=O)[nH]ccc23)c1C(F)(F)F", "Readout units": "ng·h/mL", "Measured result": 61900}

----------
Assay: 14-day oral toxicity study toxicokinetics in Sprague-Dawley rats
Assay type: in vivo
Conditions: female, rat, plasma, 30 mg/kg/day, female, Day 13, 30 mg/kg/day, mean

{"Compound": "O=C(Nc1ccnc(C(F)(F)F)c1)c1cnn(-c2cccc3c(=O)[nH]ccc23)c1C(F)(F)F [Compound A]", "Readout units": "ng/mL", "Cmax": 33400}

----------
Test: Serum and tumor levels after multiple oral doses in male OCI-LY3 tumor-bearing NSG mice
Format: in vivo
Conditions: male, NSG, mouse, serum, po, once daily PO, dose not given (second group), Day 4, 24 h post dose; mean (SD); read-out: Serum concentration

{"Substance smiles": "O=C(Nc1ccnc(C(F)(F)F)c1)c1cnn(-c2cccc3c(=O)[nH]ccc23)c1C(F)(F)F", "concentration at 24 h / ng/mL": 2800}

----------
Assay: 14-day oral toxicity study toxicokinetics in Sprague-Dawley rats
Type: in vivo
Settings: male, rat, plasma, 30 mg/kg/day, male, Day 0 (first day of dosing), 30 mg/kg/day, mean
Endpoint label: Cmax (ng/mL)

{"Substance smiles": "O=C(Nc1ccnc(C(F)(F)F)c1)c1cnn(-c2cccc3c(=O)[nH]ccc23)c1C(F)(F)F", "Endpoint label": "Cmax", "Readout units": "ng/mL", "Measured result": 24400}

----------
Assay: Preliminary food effect assessment at steady state
Format: in vivo, human
Conditions: human, plasma, oral, 200 mg, 4 × 50 mg, fasted condition, steady state; N = 1; read-out: Cmax

{"Compound": "O=C(Nc1ccnc(C(F)(F)F)c1)c1cnn(-c2cccc3c(=O)[nH]ccc23)c1C(F)(F)F [Compound A]", "Cmax": "47500 ng/mL"}

----------
Test: FIH study 67856633LYM1001 plasma pharmacokinetics
Format: in vivo, human
Settings: human, plasma, oral, 300 mg, Cycle 1 Day 1, cohort 6 × 50 mg BID > QD (300 mg BID 7 days then 300 mg QD); mean; read-out: Cmax

{"Substance smiles": "O=C(Nc1ccnc(C(F)(F)F)c1)c1cnn(-c2cccc3c(=O)[nH]ccc23)c1C(F)(F)F", "Readout units": "ng/mL", "Cmax": 4310}
